target: Nonstructural protein 3 (Zika virus, UniProt A0A024AXB9); test: Functional biochemical assay to identify treatments for viral infectious disease that targets Zika NS2B-NS3 protease. Utilizing a direct enzyme activity measurement method, reading the fluorescence intensity is used to characterize the relative potency of inhibitors as IC50.; set-up: species or system PRVABC59
Sequence (A0A024AXB9 whole entry): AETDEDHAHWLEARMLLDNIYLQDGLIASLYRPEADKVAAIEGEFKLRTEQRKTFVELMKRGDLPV
Note: every record was labeled by where its IC50 sits among low: < 0.8 µM; middle: ≥ 0.8 µM and < 20 µM; high: ≥ 20 µM

Into which bin does this compound go? Clc1ccc2[nH]ncc2c1[C@@H]1C[C@H]1c1ccc2c(c1)CNC2
high

Band of O=C(NCCc1nc2ccccc2[nH]1)c1cc2ccc(F)cc2s1 ?
high

Please report the category associated with NCc1cccc(NC(=O)[C@H](NC(=O)OCc2ccccc2)c2cccc(-c3ccccn3)c2)c1 , nothing else.
high

Hello team, could you let me know which band the following compound falls into: NCc1cccc(NC(=O)[C@@H](NC(=O)c2cccnc2)c2ccc(OCc3ccccc3)cc2)c1
high

Which bin, given its IC50, does O=S1(=O)CCN(CC#Cc2ccc3sncc3c2)CC1 occupy?
high

Which IC50 band matches O=C(Cc1ccc2ncsc2c1)Nc1ccc2c(c1)CNC2 ?
high

Which class is correct for the following compound? NCc1cccc(NC(=O)[C@@H](NC(=O)OCc2ccccc2)c2ccc(-c3ccncc3F)cc2)c1
high

Sort NCc1ccc(C[C@H](NC(=O)c2ccccc2)C(=O)Nc2cccc(CN)c2)cc1 into one of the categories.
high

Which category fits this record: COc1cc(NC(=O)OCc2ccccc2)cc(C(=O)Nc2cccc(CN)c2)c1OC
high

Just checking, what class would you give O=C(O)c1cc(Cl)ccc1S(=O)(=O)Nc1ccc(C(=O)N2CCCCC2)cc1 here?
high

// bin(item) where item = O=C(Nc1ccc2c(c1)CN[C@H]2C[C@H](O)CO)c1cc(Cl)cc2[nH]ncc12
low

Which class is correct for the following compound? O=C(Nc1ccc2c(c1)CNC2)c1cc(Cl)cc2[nH]c(-c3ncnn3C3CC3)nc12
low

Which category fits this record: N[C@H]1CC[C@H](c2ccc(NC(=O)c3cc(Cl)cc4[nH]ncc34)cc2)C1
middle

Record C[C@H](NC(=O)c1cccc2c1CC(=O)N2)c1ccncc1F — which class?
high

Which of the defined bands does the recorded IC50 of NCc1cc(C(=O)N[C@H]2CCCOC2)cc([C@@H]2C[C@H]2c2cc(Cl)cc(NC(=O)OCc3ccccc3)c2)c1 sit within?
middle

Which bin should I file Cc1c(C(=O)Nc2ccc3c(c2)CS(=O)(=O)C3)cc(C2CC2)n1C under?
high

Class label required: C=C1C[C@H](c2cc(Cl)cc(NC(=O)OCc3ccccc3)c2)[C@@H](c2cccc(-c3nn[nH]n3)c2)C1
middle

For the record CS(=O)(=O)N1CC[C@]2(C1)C(=O)Nc1cccc(C(=O)Nc3ccc4c(c3)CNC4)c12 , report the class its IC50 corresponds to.
low

Band of O=C(Nc1cc(Cl)cc(C(=O)Nc2cccc([C@H]3CCCCN3)c2)c1)OCc1ccccc1 ?
high

* * *

molecular target: UniProt A0A024AXB9; test: Functional biochemical assay to identify treatments for viral infectious disease that targets Zika NS2B-NS3 protease. Utilizing a direct enzyme activity measurement method, reading the fluorescence intensity is used to characterize the relative potency of inhibitors as IC50.; parameters: species or system PRVABC59
recorded.metric: pIC50
Please note pIC50 is a logarithmic value: minus log10 of concentration in mol/L. Answer with that number alone.

Could you please provide reported pIC50 for O=C(Nc1ccc2c(c1)CNCCO2)c1cc(Cl)cc2[nH]ncc12 ? Thanks!
6.08

Identify measured pIC50 corresponding to c1ccc(CC2CCN(Cc3c[nH]c4ccccc34)CC2)cc1
4.05

Assign pIC50 to the following record: Cn1c(=O)[nH]c2cc(C(=O)Nc3ccc4c(c3)CNC4)cc(Br)c21
5.16

Give pIC50 for O=C(Nc1cc(Cl)cc([C@H](C#CCO)Nc2ccc(-c3nn[nH]n3)cc2)c1)OCc1ccccc1
4.64

Assign pIC50 to the following record: Clc1cccc([C@H](C#Cc2ccccc2)Nc2cccc(-c3nn[nH]n3)c2)c1
4.77

Consider the compound CCc1ncc(Cl)cc1C(=O)Nc1ccc2c(c1)CNC2 and give its recorded pIC50.
5.80

Look up and report measured pIC50 for this entry: COc1cc(Br)cc(C(=O)Nc2ccc3c(c2)CNC3)c1
6.48

Identify the reported pIC50 for the following entry. O=C(Nc1cc(Cl)cc([C@H](C#CCO)Nc2cccc(-c3nn[nH]n3)c2)c1)OCc1ccccc1
4.42

Given NCc1cccc(NC(=O)c2cc(Br)cc3[nH]ccc23)c1 , respond with its pIC50.
5.33

Supply reported pIC50 belonging to this compound: NCc1cccc(NC(=O)[C@H]2c3ccc(OCc4ccccc4)cc3CCN2C(=O)OCc2ccccc2)c1
4.76

Give the reported value of pIC50 for this record: NCc1ccc(O)c(NC(=O)c2cc(Cl)cc(NC(=O)OCc3ccccc3)c2)c1
4.74

* * *

Give pIC50 for every item shown.
target: Nonstructural protein 3 (Zika virus); test: Functional biochemical assay to identify treatments for viral infectious disease that targets Zika NS2B-NS3 protease. Utilizing a direct enzyme activity measurement method, reading the fluorescence intensity is used to characterize the relative potency of inhibitors as IC50.; parameters: species or system PRVABC59
pIC50: −log10 of the molar value.

Answer with reported pIC50 of NCc1cccc(NC(=O)[C@@H](NC(=O)OCc2ccccc2)C2CCN(S(=O)(=O)Cc3cscn3)CC2)c1
< 4.00

Fill in reported pIC50 for this entry: O=C1Cc2c(cccc2C(=O)NC[C@H]2C[C@@H](n3cccn3)C2)N1
< 4.60

Name the recorded pIC50 of the item Cc1cc(NC(=O)c2cc(C3CC3)n(C)c2C)ncc1S(N)(=O)=O in your answer.
< 4.00

Answer with reported pIC50 of NCc1cccc(/C=C/c2cc(Cl)cc(NC(=O)OCc3ccccc3)c2)c1
4.65

Given the compound O=C(c1cc(Cl)cc2[nH]ncc12)N1CCC[C@H]1C1CCNCC1 , write its reported pIC50.
< 4.00

Identify measured pIC50 associated with O=C(N[C@@H](C(=O)NC1CCNCC1)c1ccc(OCc2ccccc2)cc1)OCc1ccccc1
< 4.00

Identify the reported pIC50 for the following entry. O=C(Nc1ccc2c(c1)CN[C@H]2[C@H](O)CO)c1cc(F)cc2[nH]ncc12
6.62

Report measured pIC50; entry is CCn1nc(C)c(CN(C)Cc2ccc3c(c2)CCNCC3)c1C
< 4.00

Using the record for O=C(Nc1ccc2c(c1)CNC2)c1ccnc(CO)c1 , state its measured pIC50.
< 4.00

Respond only with pIC50 recorded for NC[C@H]1C[C@@H](CNC(=O)c2cc(Cl)cc(NC(=O)OCc3ccccc3)c2)CCO1
< 4.00

Specify measured pIC50 for Cc1cc(C(=O)Nc2cccc(CN)c2)cc(NCc2cnn(C)c2)n1 .
< 4.00

Output pIC50 of COc1ccc(CNC(=O)[C@@H](NC(=O)OCc2ccccc2)c2ccc(OCc3ccccc3)cc2)cn1
< 4.00

# return recorded pIC50 for entry COc1cc(Cc2c(-c3ccc(F)cc3)noc2C)nc(N2CCNCC2)n1
4.15

Give me measured pIC50, please, for this compound: CNc1cc(COc2cccnc2F)nc(N2CCNCC2)n1
< 4.00

Give me measured pIC50, please, for this compound: O=C1Cc2c(cccc2C(=O)Nc2cnn(Cc3ccncc3)c2)N1
< 4.60

Provide measured pIC50 value, entry: CC(C)CNC(=O)[C@H](Nc1cccc(-c2nn[nH]n2)c1)c1cc(Cl)cc(NC(=O)OCc2ccccc2)c1
4.51

Specify reported pIC50 for the compound shown: NCc1cccc(NC(=O)[C@H](NC(=O)[C@H]2CCOC2)c2ccc(OCc3ccccc3)cc2)c1
< 4.00

Read off the recorded pIC50 for O=C(O)c1cc(Cl)ccc1S(=O)(=O)NC1CCN(S(=O)(=O)c2cccs2)CC1
< 4.00

Find the measured pIC50 of NCc1cccc(NC(=O)[C@@H](NC(=O)OCc2ccccc2)c2ccc(-c3cncnc3)cc2)c1 and report it.
< 4.00

Indicate its recorded pIC50; the compound in question is O=C1CCN(c2cc(Cl)cc(C(=O)Nc3ccc4c(c3)CNC4)c2)C(=O)N1
5.91

Retrieve pIC50 measured for O=C(Cn1ccnc(N2CC[C@H](CO)C2)c1=O)NCc1nccs1 and print it.
< 4.00

* * *

target: Nonstructural protein 3 (Zika virus, UniProt A0A024AXB9); assay: Functional biochemical assay to identify treatments for viral infectious disease that targets Zika NS2B-NS3 protease. Utilizing a direct enzyme activity measurement method, reading the fluorescence intensity is used to characterize the relative potency of inhibitors as IC50.; parameters: species or system PRVABC59
recorded.metric: IC50

Fill in IC50 for record C=CC[C@H](Nc1ccc2c(c1)CNC2)c1cc(Cl)cc2[nH]ncc12
7.93 µM

Quickly give me recorded IC50 for CCn1c(=O)c(N2C[C@@H]3C[C@]3(CO)C2)nc2ccccc21
> 99.5 µM

// Input: CC(C)NC(=O)[C@H](Nc1ccc2c(c1)CN(CC(F)F)C2)c1cc(Cl)cc2[nH]ncc12 . Output its IC50 only.
> 25 µM

Fill in IC50 for record CN1CCC([C@H]2CCCN(C(=O)Nc3ccc4c(c3)CNC4)C2)CC1
> 25 µM

Return the recorded IC50 value; entry: CC(C)n1cc(C(=O)Nc2cc(-c3cccnc3)ccn2)c2ccccc21
> 25 µM

Respond only with IC50 recorded for N[C@H]1CCCc2ccc(NC(=O)c3cc(Cl)cc(NC(=O)OCc4ccccc4)c3)cc21
12.1 µM

Please indicate IC50 recorded for Cc1cc(C(F)(F)F)cc(C(=O)Nc2ccc3c(c2)CNC3)n1
> 25 µM

Read off the recorded IC50 for CC(C)(C)OC(=O)NCc1cccc(NC(=O)[C@@H](NC(=O)OCc2ccccc2)c2ccc(O)cc2)c1
> 99.5 µM

Tell me IC50 reported for O=C(Nc1ccc2c(c1)CNC2)N1CCC[C@H]1Cc1cc2ccccc2o1
> 25 µM

Write down IC50 measured for item O=C(O)c1cc(Cl)ccc1S(=O)(=O)Nc1ccc(F)c(NC(=O)C2CC2)c1
> 99.5 µM
